- Test system: SMN2-linked luciferase-reporter gene construct
- ASSAY_COMMENT: SMN splice reporter assay (SMN2-linked luciferase reporter, Example 10)
- Type: cell-based
- EXPERIMENTAL_SETUP: SMN2-linked luciferase reporter, average
pEC50: −log10 of the molar value.
So basically: pEC50 at 6 or higher? That is fulfilled. Lower than 6? That is not fulfilled.

>>> print(df.to_string())
                                    compound    class_label
 0  CC(C(=O)O)c1ccc(N2Cc3ccc(-c4ccccc4)cc3C2=O)cc1 (stereo not shown)  not fulfilled
 1         CC(C)c1ccc(N2Cc3ccc(O)cc3C2=O)cc1      fulfilled
 2    CC(C)c1ccc(N2Cc3ccc(OC(F)F)cc3C2=O)cc1      fulfilled
 3  CC(C(=O)O)c1ccc(N2Cc3cccc([N+](=O)[O-])c3C2=O)cc1 (stereo not shown)  not fulfilled
 4  COc1ccc(-c2ccc3c(c2)C(=O)N(c2ccc(C(C)C(=O)O)cc2)C3)cc1 (stereo not shown)  not fulfilled
 5  COc1cc2c(cc1OC)C(=O)N(c1ccc(C(C)C)cc1)C2      fulfilled
 6  C/C=C/c1ccc2c(c1)C(=O)N(c1ccc(C(C)C(=O)O)cc1)C2 (stereo not shown)      fulfilled
 7  CC(C(=O)O)c1ccc(N2Cc3c(cccc3-c3ccc(Cl)c(Cl)c3)C2=O)cc1 (stereo not shown)  not fulfilled
 8      COc1cccc2c1C(=O)N(c1ccc(C(C)C)cc1)C2      fulfilled
 9  CCCC1c2ccccc2C(=O)N1c1ccc(C(C)C(=O)O)cc1 (stereo not shown)  not fulfilled
10  CC(C(=O)O)c1ccc(N2Cc3cc(Br)ccc3C2=O)cc1 (stereo not shown)      fulfilled
11  CC(CBr)c1ccc(N2Cc3ccccc3C2=O)cc1 (stereo not shown)      fulfilled
12  CCCOc1ccc2c(c1)C(=O)N(c1ccc(C(C)C(=O)O)cc1)C2 (stereo not shown)      fulfilled
13  CC(C(=O)Nc1ccccc1)c1ccc(N2Cc3ccccc3C2=O)cc1 (stereo not shown)      fulfilled
14  CC(C(=O)OC(C)(C)C)c1ccc(N2Cc3cccc(N)c3C2=O)cc1 (stereo not shown)  not fulfilled
15  CC(C#N)c1ccc(N2Cc3cc4c(cc3C2=O)OCCO4)cc1 (stereo not shown)      fulfilled

Values from patent US8110681B2
